Taken from patent US20110135636A1.

// values below are reported % inhibition
- ASSAY TARGET: T1, recombinant human EGFR extracellular domain with 6xHis (human, UniProt P00533 25-645)
- T1 construct: In-house produced; also called 6xHis EGFR ECD; soluble human EGFR ECD; not shown: 6xHis tag
- EXPERIMENTAL PROTOCOL: SPR competition, competitor 1347
Kindly provide the numeric value in % only, without the unit symbol.

For reference, reported % inhibition for antibody 1320 (antibody, human IgG1, kappa, V domains shown, Chimeric IgG1 kappa) VH: QVQLQQPGAELVKPGASMKLSCKASGYTFTNYWMHWVKQRPGQGLEWIGEINPSNGRTNYNEKFKSKATLTVDKSSSTAYMQLSSLTSEDSGVYYCAKGGNYYDYDWDYWGQGTTLTVSS VL: DIQMTQTTSSLSASLGDRVTISCSASQDISNYLNWYQQKPDGTVKLLIYHTSTLHSGVPSRFSGSGSGTDYSLTISNLEPEDIATYYCQQYSKLPWTFGGGTKLEIKR stands at 5

For reference, reported % inhibition for antibody 1347 (antibody, human IgG1, kappa, V domains shown, Chimeric IgG1 kappa) VH: QVQLKESGPGLVAPSQSLSITCTVSGFSLTGHGVNWVRQPPGKGLEWLGMIWGDGSTDYNSTLKSRLSISKDNSKSQVFLKMNSLQTDDTARYYCARGYGYLYYFDYWGQGTTLTVSS VL: ENVLTQSPAIMSASPGEKVTMTCRASSSVSSSYLHWYQQKSGASPKLWIYSTSNLASGVPARFSGSGSGTSYSLTVNSVETEDAATYYCHQYSGFPFTFGSGTKLELKR stands at 70
